- Test system: Vero E6 infected with SARS-CoV-2
- test-summary: morphology score (similarity to uninfected cells); higher = more like uninfected cells
- assay-context: 24 h
observed-property: morphology score
// return a plain number; no unit text

Q) GET /values?readout=morphology score&item= O=C(Nc1ccc(-c2ccnc(Nc3ccc(N4CCOCC4)cc3)n2)cc1)C1CCCN1 (centres undefined) (10 µM)
A) 0.607

Q) Next: C=C(C)[C@@H]1CC[C@]2(C(=O)O)CC[C@]3(C)[C@H](CC[C@@H]4[C@@]5(C)CC[C@H](O)C(C)(C)[C@@H]5CC[C@]43C)[C@@H]12 [betulinic-acid] (10 µM)
A) 0.0296

Q) Next: CCc1cc2cc(OC)c(OC)cc2c(Cc2ccccc2)n1 [moxaverine] (10 µM)
A) 0.495

Q) Next: CNC1CCCN(c2c(F)cc3c(=O)c(C(=O)O)cn(C4CC4)c3c2OC)C1 (centres undefined) [balofloxacin] (10 µM)
A) -0.103

----------
- Tested on: Vero E6 infected with SARS-CoV-2
- test-summary: inhibition of SARS-CoV-2 cytopathic effect; higher = more antiviral protection, active = above 15
- assay-context: 100 nM; 48 h
observed-property: inhibition of SARS-CoV-2 cytopathic effect (%)
Give just the numeric value; % need not be written.

Q) GET /values?readout=inhibition of SARS-CoV-2 cytopathic effect&item= CC/C(=C(/CC)c1ccc(OP(=O)(O)O)cc1)c1ccc(OP(=O)(O)O)cc1
A) -0.95

Q) Next: COc1nccnc1NS(=O)(=O)c1ccc(N)cc1
A) -1.36

Q) Next: CN(C(=O)Cc1ccc(Cl)c(Cl)c1)[C@H](CN1CCCC1)c1ccccc1
A) 6.09

Q) Next: CCCN1CCCC[C@H]1C(=O)Nc1c(C)cccc1C
A) 2.5

Q) Next: CC1(C)NC(=O)N(c2ccc([N+](=O)[O-])c(C(F)(F)F)c2)C1=O [nilutamide]
A) 0.03

Q) Next: Cc1cc(OCc2nc(-c3ccccc3Cl)cs2)ccc1OCC(=O)O
A) -1.19

Q) Next: CC(CC(C(N)=O)(c1ccccc1)c1ccccc1)N(C)C (centres undefined) [aminopentamide]
A) -1.71

Q) Next: C[N+](C)(C)CCCCCCCCCC[N+](C)(C)C
A) -5.16

Q) Next: c1nc(CC2CCNCC2)c[nH]1 [immepip]
A) -3.25

Q) Next: CC(=O)[C@H]1CC[C@H]2[C@@H]3CCC4=CC(=O)CC[C@]4(C)[C@H]3CC[C@]12C
A) 2.72

Q) Next: O=c1ncccn1[C@@H]1O[C@H](CO)[C@@H](O)[C@H]1O
A) 1.93

Q) Next: NCC(O)c1ccc(O)cc1 (centres undefined)
A) -2.91

Q) Next: CCC(=O)OCC(=O)[C@@]1(OC(=O)CC)[C@H](C)C[C@H]2[C@H]3[C@H]([C@@H](O)C[C@@]21C)[C@@]1(C)C=CC(=O)C=C1C[C@H]3Cl [alclometasone-dipropionate]
A) 1.16

Q) Next: CN(C)[C@@H]1C(O)=C(C(N)=O)C(=O)[C@@]2(O)C(O)=C3C(=O)c4c(O)cccc4[C@@](C)(O)[C@H]3[C@H](O)[C@@H]12
A) -1.01

Q) Next: CCCCOc1cc(C(=O)OCCN(CC)CC)ccc1N
A) 5.2

Q) Next: CN1CCN(CCOc2cc(OC3CCOCC3)c3c(Nc4c(Cl)ccc5c4OCO5)ncnc3c2)CC1
A) 0.04

Q) Next: FC(F)(F)c1ccc(CNc2ccc(Cc3c[nH]c4ncccc34)cn2)cc1
A) 0.15

Q) Next: CCC(CO)(C(=O)OC1CC2CCC(C1)[N+]2(C)C)c1ccccc1 (centres undefined)
A) 0.13

Q) Next: Nc1nc(F)nc2c1ncn2[C@@H]1O[C@H](CO)[C@@H](O)[C@@H]1O
A) -2.43

Q) Next: C#CCN(C)Cc1ccccc1
A) -1.02

Q) Next: CC(=O)[C@]1(O)Cc2c(O)c3c(c(O)c2[C@@H](O[C@H]2C[C@H](N)[C@H](O)[C@H](C)O2)C1)C(=O)c1ccccc1C3=O
A) -0.94

Q) Next: Cc1sc2c(c1C)C(c1ccc(Cl)cc1)=N[C@@H](CC(N)=O)c1nnc(C)n1-2
A) 0.16

Q) Next: CC[C@@H]1C(=O)OC[C@@H]1Cc1cncn1C
A) 1.22

Q) Next: CCC(=O)NC1CCc2cccc(OC)c2C1 (centres undefined)
A) 2.16

Q) Next: CCc1cc(-c2[nH]nc(C)c2-c2ccc3c(c2)OCCO3)c(O)cc1O
A) -0.23

Q) Next: CN[C@H]1CC[C@@H](c2ccc(Cl)c(Cl)c2)c2ccccc21
A) 8.81

Q) Next: N#Cc1ccncn1
A) 4.16

Q) Next: Oc1ccc2c3c1O[C@H]1c4c(c5ccccc5n4Cc4ccccc4)C[C@@]4(O)[C@@H](C2)N(CC2CC2)CC[C@]314
A) 2.73

Q) Next: O=Nc1c(-c2c(O)[nH]c3cc(Br)ccc23)[nH]c2ccccc12
A) 1.64

Q) Next: CCSc1ccc2c(c1)N(CCCN1CCN(C)CC1)c1ccccc1S2
A) -1.97

Q) Next: N[C@@H](CS(=O)O)C(=O)O
A) 1.16

Q) Next: CN(C)CCOc1ccc(-c2nc(-c3ccncc3)c(-c3ccc4c(c3)CC/C4=N\O)[nH]2)cc1
A) 2.34

Q) Next: Nc1nc(N)nc(NC2CC2)n1
A) 2.15

Q) Next: Cc1c(N)nc([C@H](CC(N)=O)NC[C@H](N)C(N)=O)nc1C(=O)N[C@H](C(=O)N[C@H](C)[C@@H](O)[C@H](C)C(=O)N[C@H](C(=O)NCCc1nc(-c2nc(C(=O)NCCC[S+](C)C)cs2)cs1)[C@@H](C)O)[C@@H](OC1OC(CO)C(O)C(O)C1OC1OC(CO)C(O)C(OC(N)=O)C1O)c1cnc[nH]1 (some centres undefined)
A) -1.47
